Listed next: entries and their corresponding solubility.
experiment: Kinetic solubility in aqueous media (nephelometry); format: physicochemical; details: phosphate citrate buffer, pH 7.4, aqueous buffer, kinetic from dmso stock, phosphate citrate buffer pH 7.4, turbidity of three dilution steps; read-out: Solubility Score

Sample records with solubility:
Cn1cnc(S(=O)(=O)N2CCN(c3ccc(C(=O)NO)cc3)CC2)c1 > 454 µM
O=C(NO)c1ccc(N2CCN(S(=O)(=O)c3ccc4ccccc4c3)CC2)nn1 < 75.8 µM
COc1cncc(-c2ccc(S(=O)(=O)N3CCN(c4ncc(C(=O)NO)cn4)CC3)cc2)c1 75.8 to 454 µM
O=C(NO)c1cnc(N2CCN(S(=O)(=O)c3ccc(-c4cccc(CCN5CCCC5)c4)cc3)CC2)nc1 > 454 µM
CN(C)CCN(C)Cc1ccccc1-c1ccc(S(=O)(=O)N2CCN(c3ncc(C(=O)NO)cn3)CC2)cc1 > 454 µM

// switching to the query compound
solubility lookup needed for CC(=O)Nc1ccc(N2CCN(S(=O)(=O)c3ccc4ccccc4c3)CC2)cc1 , thanks.
< 75.8 µM
